System: NCI-H226 lung
Experiment: NCI-60 one-dose screen, 48 h (100 = growth as untreated, 0 = no growth, -100 = all killed)
Conditions: 10 µM unless noted
Compounds without any hit were thinned out: in the full panel of roughly 83,000, 20% have a hit.
quantity.measured: growth (%)
One number for each entry, in %.

* Cc1cc(N)c2cc(NC(=O)/C=C\c3ccccc3Cl)ccc2n1 | -70.7
* Cc1ccc(CNc2ccc(Cl)cc2NCc2ccc(C)c(O)c2)cc1O | 85.7
* Cc1ccccc1Cn1cnc2ccc(-c3cc(NC(=O)c4ccc(NC5CCN(C)CC5)cc4)n[nH]3)cc21 | 68
* N#CCSc1nnc2n(Cc3ccccc3)c(=O)c3c4c(sc3n12)CCCC4 | 102

Query :: Quickly give me recorded growth for Cc1ccc(/C=N/Nc2nc(Nc3ccccc3)nc(-n3nc(C)cc3C)n2)cc1
Result :: 46.9
